B1: PEX5 peptide 110-125 (Peroxisomal targeting signal 1 receptor), 16-mer library wild type / PEX14 Pex14 (PEX14 PEX14, residues 16-84) (parent)
chain 1: ADLALSENWAQEFLAA
chain 2: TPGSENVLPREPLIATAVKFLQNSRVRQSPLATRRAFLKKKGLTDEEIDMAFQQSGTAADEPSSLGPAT

Variants of: B1
Assay: proteomic peptide phage display deep mutational scan (ProP-PD DMS): M13 P8 16-mer library selected against immobilised GST-tagged bait for four days (rounds), NGS of the eluted pools per day and pseudo-replica
Conditions: with PEX14 Pex14 (PEX14 PEX14, residues 16-84); bait immobilised on MaxiSorp plates (10 µg), library pre-cleared on GST, 2 h binding at 4 °C, five washes; one round per day, days 1-4; value from days 2 and 3; scale: average fractional NGS count over selection days 2 and 3
observedProperty: screen value

| variantDesignation | result |
| --- | --- |
| chain 1 F13L | 0.000183 |
| chain 1 D2V | 0.000407 |
| chain 1 L14M | 9.56e-05 |
| chain 1 L3S | 0.000293 |
| chain 1 E12Q | 0.000147 |
| chain 1 W9Q | 0 |
| chain 1 F13G | 0 |
| chain 1 Q11G | 0.000317 |
| chain 1 W9T | 0 |
| chain 1 W9M | 5.43e-05 |
| chain 1 S6A | 0.000293 |
| chain 1 A4S | 9.07e-05 |
| chain 1 F13K | 0 |
| chain 1 A4E | 0.000166 |
| chain 1 L3R | 0 |
| chain 1 A15Q | 0 |
| chain 1 A10N | 0.000118 |
| chain 1 W9G | 0 |
| chain 1 L3V | 0.000442 |
| chain 1 W9L | 0 |
| chain 1 E12A | 0.000448 |
| chain 1 A15Y | 9.07e-05 |
| chain 1 A15G | 9.87e-05 |
| chain 1 L14G | 0 |
| chain 1 A1L | 0.000249 |
| chain 1 Q11P | 0 |
| chain 1 A15N | 0.000268 |
| chain 1 Q11K | 0 |
| chain 1 S6Y | 0.000301 |
| chain 1 F13P | 0 |
| chain 1 A1K | 0.00027 |
| chain 1 S6T | 0 |
| chain 1 L5E | 0 |
| chain 1 N8T | 0.000134 |
| chain 1 L5F | 0.000301 |
